# System: Escherichia coli
# test-method-notes: Antimicrobial activity against Escherichia coli MTCC 443 after 24 hr by serial broth dilution method
# Format: functional
# protocol-conditions: MTCC 443, 24 h
parameter: MIC (µg/mL)

> print(dat)
                                   compound  unit.info  observed.result
1  CN(C)c1ccc(C2C=C(c3ccc(N)cc3)N=C(SCCCC#N)N2)cc1 (stereo not given)      µg/mL              500
2  COc1cc(C2C=C(c3ccc(N)cc3)N=C(SCCCC#N)N2)ccc1O (stereo not given)      µg/mL               25
3  Cc1ccc(C2C=C(c3ccc(N)cc3)N=C(SCCCC#N)N2)cc1 (stereo not given)      µg/mL              100
4  N#CCCCSC1=NC(c2ccc(N)cc2)=CC(c2ccc([N+](=O)[O-])cc2)N1 (stereo not given)      µg/mL              500

1 = N#CCCCSC1=NC(c2ccc(N)cc2)=CC(c2cccc(O)c2)N1 (stereo not given)
2 = N#CCCCSC1=NC(c2ccc(N)cc2)=CC(c2ccc(O)cc2)N1 (stereo not given)
[Q] Consider 1 and 2 . Which of these has its MIC at a higher number? // respond with label for picked entry
[A] 1
(1: 500 µg/mL, 2: 25 µg/mL)

A = Cc1cccc(C2C=C(c3ccc(N)cc3)N=C(SCCCC#N)N2)c1 (stereo not given)
B = COc1ccc(C2C=C(c3ccc(N)cc3)N=C(SCCCC#N)N2)cc1 (stereo not given)
[Q] Consider A and B . Which of these has its MIC at a higher number? // respond with label for picked entry
[A] A

###

# System: Pseudomonas aeruginosa
# test-method-notes: Antimicrobial activity against Pseudomonas aeruginosa MTCC 1688 after 24 hr by serial broth dilution method
# Type: functional
# protocol-conditions: MTCC 1688, 24 h
parameter: MIC (µg/mL)

I = N#CCCCSC1=NC(c2ccc(N)cc2)=CC(c2ccc(O)cc2)N1 (centres undefined)
II = COc1ccc(C2C=C(c3ccc(N)cc3)N=C(SCCCC#N)N2)cc1 (centres undefined)
III = Cc1cccc(C2C=C(c3ccc(N)cc3)N=C(SCCCC#N)N2)c1 (centres undefined)
[Q] Sort (3 compounds) by MIC: min first. Use the labels to give the ranking in the order requested.
[A] II, III, I
